From: patent EP4671273A1

Attribute: koff
- Measured target: T1, rhIL-21-His (AB235875-1001, Abcam) (human, UniProt Q9HBE4 30-162)
- T1 construct: bought; not shown: His tag, length and position not described
- T1 sequence (Q9HBE4 30-162 limits assumed): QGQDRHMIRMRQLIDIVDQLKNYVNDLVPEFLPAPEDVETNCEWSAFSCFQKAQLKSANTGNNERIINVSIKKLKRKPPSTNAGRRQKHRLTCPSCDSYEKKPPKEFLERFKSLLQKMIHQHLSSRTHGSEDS
- Assay name: SPR, Fab on captured rhIL-21-His
Lab book: enter the figure in s⁻¹, no units written.

The binder identified as IFQ920 Fab (Fab, V domains shown, Fab) VH: QVQLQESGPGLVKPSETLSLTCTVSGGSISSDFWGWIRQPPGKGLEWIGYISSRGSTNYNPSLKRRVTISVDTSRNQFSLKLSSVTAADTAVYYCARSAGVADFDFWGQGTLVTVSS VL: DIQMTQSPSSVSASVGDRVTITCRASQGISSWLAWYQHKPGKAPKLLIYVASSLQSGVPSRFSGSGSGTDFTLTISSLQPEDFATYYCQQANSAPLTFGGGTKVEIK registered its koff at 0.00233
